Quick list: MBC per entry.
# Test system: Klebsiella pneumoniae
# Experiment: Bactericidal activity against Klebsiella pneumoniae ATCC 13883 after 18 hrs by microdilution method
# Assay type: functional
# Particulars: ATCC 13883, 18 h, read-out: MBC=>99.9
Reported metric: MBC (µM)

[[record]]
substance = "H-KIALKALKALKALGKALKAL-NH2"
censoring_sign = "="
experimental_result = 4

[[record]]
substance = "H-KIAKGALKALKIAKGALKAL-NH2"
censoring_sign = "="
experimental_result = 4

[[record]]
substance = "H-KIGKALGKALKALGKALGKA-NH2"
censoring_sign = "="
experimental_result = 32

[[record]]
substance = "H-KIAGKAGKIAKIAGKAGKIA-NH2"
censoring_sign = ">"
experimental_result = 64


----------
# key: entry, value: MBC
# System: Escherichia coli
# Experiment: Bactericidal activity against Escherichia coli ATCC 25922 after 18 hrs by microdilution method
# Format: functional
# Particulars: ATCC 25922, 18 h, read-out: MBC=>99.9
Reported metric: MBC

[[record]]
substance = "H-KIALKALKALKALGKALKAL-NH2"
test_system = "Escherichia coli"
experimental_result = "2 to 4 µM"

[[record]]
substance = "H-KIAGKAGKIAKIAGKAGKIA-NH2"
test_system = "Escherichia coli"
experimental_result = "> 64 µM"

[[record]]
substance = "H-KIAKGALKALKIAKVALKAL-NH2"
test_system = "Escherichia coli"
experimental_result = "0.5 to 1 µM"


The values you see were collected from ChEMBL document CHEMBL4020848.
